# MEASUREMENT PROTOCOL: Multiple oral dose plasma pharmacokinetics in healthy subjects
# Type: in vivo, human
# RUN PARAMETERS: human, plasma, oral, 100 ug, healthy subjects, 100 μg qd, Day 1, plasma; median; read-out: Tmax
READOUT: Tmax (h)
Could you give me the number in h? Just the number is fine.

response.value for O=C(O)c1cc(F)c2nc(N3C4CC[C@H]3CC(OCc3c(-c5ccccc5OC(F)(F)F)noc3C3CC3)C4)sc2c1 (stereo partly shown) [Compound A] (field: Tmax) = 4

====

# MEASUREMENT PROTOCOL: Multiple oral dose plasma pharmacokinetics in healthy subjects
# Type: in vivo, human
# RUN PARAMETERS: human, plasma, oral, 60 ug, healthy subjects, 60 μg qd, Day 13, plasma; mean; read-out: AUCtau
READOUT: AUC (ng·h/mL)
Could you give me the number in ng·h/mL? Just the number is fine.

response.value for O=C(O)c1cc(F)c2nc(N3C4CC[C@H]3CC(OCc3c(-c5ccccc5OC(F)(F)F)noc3C3CC3)C4)sc2c1 (stereo partly shown) [Compound A] (field: AUC) = 25.3

====

# MEASUREMENT PROTOCOL: Single oral dose plasma pharmacokinetics in healthy subjects
# Format: in vivo, human
# RUN PARAMETERS: human, plasma; healthy subjects, single oral dose, range across doses; read-out: mean apparent terminal elimination half-life
READOUT: half-life

response.value for O=C(O)c1cc(F)c2nc(N3C4CC[C@H]3CC(OCc3c(-c5ccccc5OC(F)(F)F)noc3C3CC3)C4)sc2c1 (stereo partly shown) [Compound A] (field: half-life) = 13 to 22 h

====

# MEASUREMENT PROTOCOL: Single oral dose plasma pharmacokinetics in healthy subjects
# Format: in vivo, human
# RUN PARAMETERS: human, 10 ug; healthy subjects, single oral dose 10 μg, fasted, plasma; mean
READOUT: Cmax (ng/mL)
Could you give me the number in ng/mL? Just the number is fine.

response.value for O=C(O)c1cc(F)c2nc(N3C4CC[C@H]3CC(OCc3c(-c5ccccc5OC(F)(F)F)noc3C3CC3)C4)sc2c1 (stereo partly shown) (field: Cmax) = 0.186
